Reported inhibition values for the following compounds.
biological target: Hexose transporter 1 (Plasmodium falciparum); assay: ST_JUDE_LEISH: Cytotoxicity at 2uM final concentration against transgenic Leishmania Mexicana promastigotes LmPfHT that are glucose transport deficient and complemented with the Plasmodium falciparum hexose transporter. Activity is measured by DNA content using SYBR green in vitro; assay type: functional
Respond numerically; units are % and should not be typed.

Cc1[nH]c2ccccc2c1C1=CCN(CCCCCNC(=O)/C=C/c2ccc(Cl)c(Cl)c2)CC1	5.72
CCOc1ccc(CN(CCc2ccc3c(c2)OCO3)Cc2cc(OC)ccc2O)cc1	4.01
CC[C@H]1CN2CCc3cc(OC)c(OC)cc3[C@@H]2C[C@@H]1C[C@H]1NCCc2cc(OC)c(OC)cc21	94
Cc1cc2ccc(CNCCc3ccccc3Br)cc2nc1N	2.77
CCOC(C(=O)OCC1CCCN1C(C)C)(c1ccccc1)c1ccccc1 (stereo not given)	3.09

**Q:** Specify measured inhibition for Cc1[nH]c2ccc(O)cc2c1C1CCN(CC2CCC(NC(=O)/C=C/c3c(Cl)cccc3Cl)CC2)CC1 (stereo not given) .
**A:** 0.48

**Q:** Specify measured inhibition for `CCOC(C(=O)OCCN(C(C)C)C(C)C)(c1ccccc1)c1ccccc1` .
**A:** 0.41

**Q:** Specify measured inhibition for `COCCNCc1ccc(-c2cccc(CN(C(=O)CCC3CCCC3)C3CCN(Cc4ccccc4)CC3)c2)cc1` .
**A:** 1.28

**Q:** Specify measured inhibition for CNCC(O)c1cc(Cl)c(Cl)cc1C (stereo not given) .
**A:** 0.44

**Q:** Specify measured inhibition for OC(CNC12CC3CC(CC(C3)C1)C2)c1cccc(C(F)(F)F)c1 (stereo not given) .
**A:** -1.19

* * *

target: Solute carrier family 2, facilitated glucose transporter member 1 (Homo sapiens); assay: ST_JUDE_LEISH: Cytotoxicity at 2uM final concentration against transgenic Leishmania Mexicana promastigotes LmGLUT1 that are glucose transport deficient and complemented with the human glucose transporter GLUT1. Activity is measured by DNA content using SYBR green in vitro; type: functional
OBSERVABLE: inhibition

// worked examples, inhibition included
CC(=O)Nc1ccc(CN2CCC(N(C)c3cc(NC(=O)c4cccs4)ccn3)CC2)cc1	-1.53%
CC[C@H]1CN2CC[C@H]1C[C@H]2[C@H](O)c1cc(-c2ccccc2C(F)(F)F)nc2ccc(OC)cc12	0.61%
COC(=O)c1ccc(CC(C)NCC(O)c2cccc(Br)c2)cc1 (centres undefined)	-0.96%
NCC(=O)c1cc2c(cc1N)OCCO2	8.91%

**Q:** Using Solute carrier family 2, facilitated glucose transporter member 1 (Homo sapiens) as the test system, report measured inhibition of `NC1=NC2(CCCC2)N(c2ccc(Cl)cc2)C(N)=N1` .
**A:** 3.05%

**Q:** Using Solute carrier family 2, facilitated glucose transporter member 1 (Homo sapiens) as the test system, report measured inhibition of `Cn1nc(-c2ccc(S(=O)(=O)N3CCC(CN4CCC(c5c[nH]c6ccccc56)CC4)CC3)s2)cc1C(F)(F)F` .
**A:** 0.1%

**Q:** Using Solute carrier family 2, facilitated glucose transporter member 1 (Homo sapiens) as the test system, report measured inhibition of O=C(NC1CCC(CN2CCC(c3c[nH]c4ccccc34)CC2)CC1)c1cnn(-c2ccccc2)c1-c1ccccc1Cl (centres undefined) .
**A:** 4.74%

**Q:** Using Solute carrier family 2, facilitated glucose transporter member 1 (Homo sapiens) as the test system, report measured inhibition of CN1C2CCC1c1cc(NC(=O)c3cc(-c4ccc(Cl)cc4)cs3)ccc12 (centres undefined) .
**A:** 8.89%

**Q:** Using Solute carrier family 2, facilitated glucose transporter member 1 (Homo sapiens) as the test system, report measured inhibition of O=S(=O)(NC1CCC(CN2CCC(c3c[nH]c4ccccc34)CC2)CC1)c1ccc(Cl)c(Cl)c1 (centres undefined) .
**A:** -2.62%

* * *

target: Glucose transporter (Leishmania mexicana) (UniProt O61059); test: ST_JUDE_LEISH: Cytotoxicity at 2uM final concentration against transgenic Leishmania Mexicana promastigotes LmGT2 that are glucose transport deficient and complemented with the L. Mexicana glucose transporter 2. Activity is measured by DNA content using SYBR green in vitro; assay type: functional
OBSERVABLE: inhibition
Please give the number followed by its unit.

// worked examples, inhibition included
O=C(/C=C/c1ccc(Cl)c(Cl)c1)NCCCCCN1C2CCC1CC(c1c[nH]c3ccccc13)C2 (stereo not given)	2.33%
OC(CNC1CCCCC1)c1ccc(Cl)c(Cl)c1 (stereo not given)	-0.95%
CCOC(=O)c1ccc(CC(C)NCC(O)c2cccc(C(F)(F)F)c2)cc1 (stereo not given)	-0.87%

**Q:** Specify measured inhibition for `Clc1ccc2nccc(N3CCC(CN4CCC(c5c[nH]c6ccccc56)CC4)CC3)c2c1` .
**A:** 2.61%

**Q:** Specify measured inhibition for O=C(CCC(=O)c1ccc2c3c(cccc13)CC2)NC1CCC(CN2CCC(c3c[nH]c4ccccc34)CC2)CC1 (stereo not given) .
**A:** 4.96%

* * *

target: Glucose transporter (Leishmania mexicana) (UniProt O61059); assay: ST_JUDE_LEISH: Cytotoxicity at 2uM final concentration against transgenic Leishmania Mexicana promastigotes LmGT2 that are glucose transport deficient and complemented with the L. Mexicana glucose transporter 2. Activity is measured by DNA content using SYBR green in vitro; type: functional
Reported inhibition values for the following molecules.
Respond numerically; units are % and should not be typed.

// worked examples, inhibition included
CC[C@H]1CN2CC[C@H]1C[C@H]2[C@H](O)c1cc(Cl)nc2ccc(OC)cc12	1.61
O=C(/C=C/c1ccc(Cl)c(Cl)c1)N1CCC(CN2CCC(c3c[nH]c4cc(C(F)(F)F)ccc34)CC2)CC1	-0.87
O=C(/C=C/c1cc(C(F)(F)F)ccc1F)N1CCC(CN2CCC(c3c[nH]c4ccccc34)CC2)CC1	-1.26

**Q:** Using Glucose transporter (Leishmania mexicana) (UniProt O61059) as the test system, report measured inhibition of `Cc1cc2cc(CNCCc3ccccc3Br)ccc2nc1N` .
**A:** 5.36

**Q:** Using Glucose transporter (Leishmania mexicana) (UniProt O61059) as the test system, report measured inhibition of O=C1c2ccccc2CCC1CCN1CC=C(c2c[nH]c3ccccc23)CC1 (stereo not drawn) .
**A:** 3.16

**Q:** Using Glucose transporter (Leishmania mexicana) (UniProt O61059) as the test system, report measured inhibition of CCC1(C)CC(CCNCc2ccccc2O)(c2ccc(C)cc2)CCO1 (stereo not drawn) .
**A:** -0.15

**Q:** Using Glucose transporter (Leishmania mexicana) (UniProt O61059) as the test system, report measured inhibition of Cc1ccc(CC(C)NCC(O)c2cccc(C#N)c2)cc1 (stereo not drawn) .
**A:** 9.79

**Q:** Using Glucose transporter (Leishmania mexicana) (UniProt O61059) as the test system, report measured inhibition of `COCCNCc1cccc(-c2ccc(CN(C(=O)NC3CCCCC3)C3CCN(Cc4ccccc4)CC3)cc2)c1` .
**A:** 2.09

* * *

biological target: Hexose transporter 1 (Plasmodium falciparum) (UniProt O97467); test: ST_JUDE_LEISH: Cytotoxicity at 2uM final concentration against transgenic Leishmania Mexicana promastigotes LmPfHT that are glucose transport deficient and complemented with the Plasmodium falciparum hexose transporter. Activity is measured by DNA content using SYBR green in vitro; assay type: functional
OBSERVABLE: inhibition (%)
Respond numerically; units are % and should not be typed.

// worked examples, inhibition included
COc1ccc(CN2CCN(CCOC(c3ccc(F)cc3)c3ccc(F)cc3)CC2)c(O)c1	3.26
CC[C@H]1CN2CC[C@@H]1C[C@H]2[C@H](O)c1cc(N2CCOCC2)nc2ccc(OC)cc12	-1.44
CC[C@H]1CN2CC[C@@H]1C[C@H]2[C@H](O)c1ccnc2ccc(OC)cc12	0.55
COc1ccc(OC)c(CNCC(O)c2cc(C(F)(F)F)cc(C(F)(F)F)c2)c1 (centres undefined)	6.21
CN1CC=C(c2csc3ccc(NC(=O)Nc4ccc(-c5ccncc5)c(Cl)c4)cc23)CC1	-0.33

**Q:** Specify measured inhibition for `O=C(Cc1cc(=O)oc2cc(O)ccc12)N1CCC(CN2CCC(c3c[nH]c4ccccc34)CC2)CC1` .
**A:** 5.46

**Q:** Specify measured inhibition for CC(=O)C1(c2ccccc2)CCN(CCC2(c3ccc(Cl)c(Cl)c3)CN(C(=O)Nc3cccc(C(F)(F)F)c3)CCO2)CC1 (centres undefined) .
**A:** 4.19

**Q:** Specify measured inhibition for CCN(CC)CCN1C(=O)C(O)(c2ccccc2Cl)c2c1cc(C(N)=O)cc2C(F)(F)F (centres undefined) .
**A:** 2.29

* * *

molecular target: Glucose transporter (Leishmania mexicana); experiment: ST_JUDE_LEISH: Cytotoxicity at 2uM final concentration against transgenic Leishmania Mexicana promastigotes LmGT2 that are glucose transport deficient and complemented with the L. Mexicana glucose transporter 2. Activity is measured by DNA content using SYBR green in vitro; format: functional
OBSERVABLE: inhibition (%)
Respond numerically; units are % and should not be typed.

// worked examples, inhibition included
O=C(NC1CCC(CN2CCC(c3c[nH]c4ccccc34)CC2)CC1)c1cc(-c2ccc(F)cc2F)ccc1O (stereo not drawn)	0.42
CCCc1c(C(=O)NC2CCC(CN3CCC(c4c[nH]c5ccccc45)CC3)CC2)cnn1-c1ccc(Cl)cc1 (stereo not drawn)	-1.49
CCCCCCCN1C2CCC1CC(CCOc1ccnc3ccc(OC)cc13)C2 (stereo not drawn)	11
CCCCNC(c1ccc(Cl)cc1)C(O)c1ccc(Cl)cc1 (stereo not drawn)	9.91
COc1ccc2[nH]cc(C3=CCN(Cc4ccccc4)CC3)c2c1	2.21
CCCCCCC(C)(C)c1cc(O)c2c(c1)OC(C)(C)c1ccncc1-2	3.15

**Q:** Specify measured inhibition for `O=C(/C=C/c1ccc(Cl)c(Cl)c1)Nc1cccc(CN2CCC(c3c[nH]c4ccc(O)cc34)CC2)c1` .
**A:** -0.7

**Q:** Specify measured inhibition for CC(Cc1ccc(OCc2ccc(CCN(C)C)cc2)cc1)NCCc1cccc(Cl)c1 (stereo not drawn) .
**A:** -2.69

**Q:** Specify measured inhibition for `Cc1cccc(C(=O)Nc2ccnc(N(C)C3CCN(CC(C)C)CC3)c2)c1` .
**A:** 0

**Q:** Specify measured inhibition for `CCOc1ccc(CN(CCc2ccc3c(c2)OCO3)Cc2cc(OC)ccc2O)cc1` .
**A:** 6.07

**Q:** Specify measured inhibition for `CC[C@H]1CN2CC[C@H]1C[C@@H]2[C@H](O)c1ccnc2ccc(O)cc12` .
**A:** 0.24

**Q:** Specify measured inhibition for CCOc1ccc(Br)cc1/C=C/C(=O)Nc1ccc2c(c1)C1CCC2N1C (stereo not drawn) .
**A:** 3.45

**Q:** Specify measured inhibition for Cc1c(C(=O)NC2CCC(CN3CCC(c4c[nH]c5ccccc45)CC3)CC2)cnn1-c1c(Cl)cc(Cl)cc1Cl (stereo not drawn) .
**A:** -1.52

**Q:** Specify measured inhibition for `c1ccc2c(NCCCCCCNc3c4ccccc4nc4ccccc34)c3ccccc3nc2c1` .
**A:** 4.31

**Q:** Specify measured inhibition for `CN1CC=C(c2c[nH]c3ccc(OC(=O)c4ccccc4)cc23)C1` .
**A:** 1

**Q:** Specify measured inhibition for `O=C(C=Cc1ccc(F)c(Br)c1)N1CCC(CN2CCC(c3c[nH]c4ccccc34)CC2)CC1` .
**A:** 13.1

**Q:** Specify measured inhibition for `CC[C@H]1CN2CC[C@@H]1C[C@H]2[C@H](O)c1cc(N2CCOCC2)nc2ccc(OC)cc12` .
**A:** -2.42

**Q:** Specify measured inhibition for `Cc1cc(-c2ncc[nH]2)ccc1-c1ccc(C(=O)N2CCc3cc4c(cc32)C2(CCN(C)CC2)CO4)cc1` .
**A:** -0.2

**Q:** Specify measured inhibition for `CSc1ccc(C[C@@H](C)NC[C@H](O)c2cccc(Cl)c2)cc1` .
**A:** 2.94

**Q:** Specify measured inhibition for `COc1cc(NCCCNC(=O)c2cn(Cc3ccccc3)c3ccccc23)nc2ccccc12` .
**A:** -1.02

**Q:** Specify measured inhibition for `CC[C@H]1CN2CC[C@@H]1C[C@H]2[C@H](O)c1cc(N2CCC(CO)CC2)nc2ccc(OC)cc12` .
**A:** 2.66

**Q:** Specify measured inhibition for O=C(/C=C/c1ccc(Cl)c(Cl)c1)NC1CCC(N2CCC(c3c[nH]c4ccccc34)CC2)CC1 (stereo not drawn) .
**A:** 4.41

**Q:** Specify measured inhibition for `CC[C@H]1CN2CC[C@H]1C[C@H]2[C@H](O)c1cc(-c2ccccc2C)nc2ccc(OC)cc12` .
**A:** -4.71

**Q:** Specify measured inhibition for `Cc1cc2ccc(CNCCc3ccccc3Br)cc2nc1N` .
**A:** 3.87

**Q:** Specify measured inhibition for `COc1cc2nc(N(C)C3CCN(Cc4ccccc4)CC3)nc(N)c2cc1OC` .
**A:** 25

**Q:** Specify measured inhibition for `O=C(c1cccs1)N(Cc1cccc(-c2ccc(CNC3CCCC3)cc2)c1)C1CCN(Cc2ccccc2)CC1` .
**A:** 9.21

**Q:** Specify measured inhibition for `C[C@@H](CC1CCCCC1)NCc1ccccc1O` .
**A:** 3.31

**Q:** Specify measured inhibition for `CC(C)NC(=O)Cn1cc(C2CCN(CC3CCN(C(=O)/C=C/c4ccc(Cl)c(Cl)c4)CC3)CC2)c2ccccc21` .
**A:** 1.41

Data credit: ChEMBL document CHEMBL3433997
